- TARGET DESC: UniProtKB Q5U3Y7
- Sequence (Q5U3Y7 1-176): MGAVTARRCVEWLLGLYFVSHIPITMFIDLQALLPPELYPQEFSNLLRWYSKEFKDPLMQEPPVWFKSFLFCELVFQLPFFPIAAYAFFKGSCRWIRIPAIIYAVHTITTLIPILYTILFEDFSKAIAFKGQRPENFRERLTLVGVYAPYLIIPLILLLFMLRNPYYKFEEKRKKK
- PROTOCOL SUMMARY: Radioreceptor binding assay, σ2 (3H-DTG + (+)-pentazocine, rat brain membrane)
- ASSAY CONTEXT: rat brain membrane, 3H-DTG with (+)-pentazocine; determined by ANSTO LifeSciences; read-out: Affinity σ2 (Ki)
- Procedure: The test compounds were solubilised in DMSO and diluted in 50 mmol/L Tris-HCl (pH 8.0). Membrane homogenates were prepared from male Sprague-Dawley rat brains as previously described. The binding of σ ligands to σ1 and σ2 receptors was determined according to literature methods with minor modification. […] The filters were collected and the amount of bound radioactivity was measured using a β-scintillation counter (Tri-Carb 2100TR, Packard Instrument Co., Downers Grove, IL, USA). […]
ASSAY READOUT: Ki
In your response, the unit should come after the numeric value.

- COc1cc2c(cc1OC)CN(CCCCCN1C(=O)c3ccc(F)cc3C1=O)CC2 [SIG353]: 2.4 nM

Now turn to the next compound.
Short answer for COc1cc2c(cc1OC)CN(CCCCN1C(=O)c3ccc(F)cc3C1=O)CC2 [SIG343] : Ki was 8 nM

* * *

- TARGET DESC: Dopamine, non-selective
- PROTOCOL SUMMARY: Cross activity at neuroreceptors (Caliper LifeSciences): dopamine
- ASSAY CONTEXT: determined by Caliper LifeSciences; read-out: Affinity Dopamine, non-selective (IC50)
ASSAY READOUT: IC50

* COc1cc2c(cc1OC)CN(CCCCCN1C(=O)c3ccc(F)cc3C1=O)CC2 | > 10 µM

Kindly review the next compound as well.
Summary for this compound, COc1cc2c(cc1OC)CN(CCCCN1C(=O)c3ccc(F)cc3C1=O)CC2 : IC50 is > 10 µM

* * *

Endpoint: Ki. System: σ1 receptors (Rattus norvegicus). Items follow.
Sequence (Q9R0C9 whole entry): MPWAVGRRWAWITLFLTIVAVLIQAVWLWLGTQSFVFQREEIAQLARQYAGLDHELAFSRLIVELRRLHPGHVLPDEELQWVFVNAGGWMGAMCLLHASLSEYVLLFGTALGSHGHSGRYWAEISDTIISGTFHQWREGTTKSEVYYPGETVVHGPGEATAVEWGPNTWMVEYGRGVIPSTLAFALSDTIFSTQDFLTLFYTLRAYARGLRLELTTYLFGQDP
Give bare numbers, in nM.

• COc1cc2c(cc1OC)CN(CCCCN1C(=O)c3ccc(F)cc3C1=O)CC2 = 1600

Now for another entry.
Item: COc1cc2c(cc1OC)CN(CCCCCN1C(=O)c3ccc(F)cc3C1=O)CC2 | Ki: 266

* * *

Assignment: determine reported pIC50 for the given molecules.
- TARGET DESC: UniProt:P21554
- Sequence (P21554 whole entry): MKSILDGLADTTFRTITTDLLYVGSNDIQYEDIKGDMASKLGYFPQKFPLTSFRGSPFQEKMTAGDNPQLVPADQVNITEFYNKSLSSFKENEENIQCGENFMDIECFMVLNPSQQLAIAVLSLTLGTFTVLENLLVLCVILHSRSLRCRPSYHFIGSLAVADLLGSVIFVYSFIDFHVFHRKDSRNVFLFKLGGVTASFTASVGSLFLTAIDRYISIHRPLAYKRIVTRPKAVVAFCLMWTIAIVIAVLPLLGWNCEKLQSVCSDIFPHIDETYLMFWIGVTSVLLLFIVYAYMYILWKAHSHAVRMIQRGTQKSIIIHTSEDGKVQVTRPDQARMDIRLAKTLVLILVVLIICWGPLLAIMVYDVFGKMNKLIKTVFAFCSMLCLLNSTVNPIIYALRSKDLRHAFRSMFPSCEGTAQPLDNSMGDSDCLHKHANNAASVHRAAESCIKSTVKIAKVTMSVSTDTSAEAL
pIC50: −log10 of the molar value.

• COc1cc2c(cc1OC)CN(CCCCN1C(=O)c3ccc(F)cc3C1=O)CC2 = < 5.00

Here's the next entry for you.
pIC50 reading for COc1cc2c(cc1OC)CN(CCCCCN1C(=O)c3ccc(F)cc3C1=O)CC2 : < 5.00

* * *

Please provide measured IC50 for the entries that follow.
- TARGET DESC: Opioid, non-selective
- PROTOCOL SUMMARY: Cross activity at neuroreceptors (Caliper LifeSciences): opioid
- ASSAY CONTEXT: determined by Caliper LifeSciences; read-out: Affinity Opioid, non-selective (IC50)

* COc1cc2c(cc1OC)CN(CCCCCN1C(=O)c3ccc(F)cc3C1=O)CC2 [SIG353] | > 10 µM

Turning now to a further record.
# IC50 measured on Opioid, non-selective for item COc1cc2c(cc1OC)CN(CCCCN1C(=O)c3ccc(F)cc3C1=O)CC2 [SIG343] = > 10 µM
